# IC50 values compiled below
- TARGET UNDER TEST: B-Raf kinase (Homo sapiens)
- Construct: GST (N); purchased Sigma
- Sequence (P15056 416-766): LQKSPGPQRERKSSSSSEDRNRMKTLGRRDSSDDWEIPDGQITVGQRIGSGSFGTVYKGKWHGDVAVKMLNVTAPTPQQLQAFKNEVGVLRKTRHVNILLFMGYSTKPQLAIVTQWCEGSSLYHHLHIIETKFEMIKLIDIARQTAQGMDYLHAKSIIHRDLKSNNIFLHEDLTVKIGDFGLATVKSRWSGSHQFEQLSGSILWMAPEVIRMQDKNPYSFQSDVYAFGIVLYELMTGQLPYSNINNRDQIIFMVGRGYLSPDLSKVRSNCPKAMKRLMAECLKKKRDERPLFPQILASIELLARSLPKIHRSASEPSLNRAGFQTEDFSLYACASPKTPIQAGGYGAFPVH
- ASSAY OVERVIEW: Biochemical assay for B-Raf.1 (coupled pyruvate kinase/lactate dehydrogenase)
- MEASUREMENT CONDITIONS: read-out: BRAF.1 IC50

COMPOUND: COC1(CCNC(=O)Nc2cc(-c3ccnc(-c4ccnc(NC(=O)C5CC5)c4)n3)c(C)cc2F)CC1
TARGET UNDER TEST: B-Raf kinase (Homo sapiens)
OBSERVED RESULT: ≤ 0.1 µM
//
COMPOUND: Cc1cc(F)c(NC(=O)Nc2cnn(C(C)(C)C)c2)cc1-c1cc(OCCN(C)C)nc(N2CCOCC2)c1
TARGET UNDER TEST: B-Raf kinase (Homo sapiens)
OBSERVED RESULT: 0.5 to 1 µM
//
COMPOUND: Cc1cc(F)c(NC(=O)NCCC(F)F)cc1-c1cc(OCCO)nc(-c2ccnc(NC(=O)C3CC3)c2)c1
TARGET UNDER TEST: B-Raf kinase (Homo sapiens)
OBSERVED RESULT: ≤ 0.1 µM
//
COMPOUND: COC(C)(C)CCNC(=O)Nc1cc(-c2cccc(-c3ccnc(N)c3)c2)c(C)cc1F
TARGET UNDER TEST: B-Raf kinase (Homo sapiens)
OBSERVED RESULT: 0.1 to 0.5 µM
//
COMPOUND: Cc1ccc(NC(=O)Nc2cnc(C(F)(F)F)s2)cc1-c1cc(OCCO)nc(N2CCOCC2)c1
TARGET UNDER TEST: B-Raf kinase (Homo sapiens)
OBSERVED RESULT: 0.1 to 0.5 µM

Q: # get_value(readout= IC50, system= B-Raf kinase (Homo sapiens)) for COC(=O)Nc1cc(-c2cc(-c3cc(NC(=O)NCCC4(C)CC4)cnc3C)cc(OCCO)n2)ccn1
Ans: ≤ 0.1 µM

Q: Now this one: CC(=O)Nc1cc(-c2cc(-c3cc(NC(=O)NCCC(C)(C)C#N)c(F)cc3C)cc(C3CC3)n2)ccn1
Ans: ≤ 0.1 µM

Q: Entry to check: Cc1cc(F)c(NC(=O)N[C@@H]2CC[C@H](F)C2)cc1-c1cc(OCCO)nc(-c2ccnc3[nH]ncc23)c1
Ans: 0.5 to 1 µM

Q: Lookup CC(=O)Nc1cc(-c2cc(-c3cc(NC(=O)NCCC4(C)CC4)c(F)cc3C)cc(C)n2)ccn1
Ans: ≤ 0.1 µM

Q: Please do the same for Cc1cc(F)c(NC(=O)NCC(C)C)cc1-c1cc(OCCO)nc(-c2ccnc(NC(=O)C3CC3)c2)c1 as well.
Ans: ≤ 0.1 µM

Q: Likewise for COC(=O)Nc1cc(-c2nccc(-c3cc(NC(=O)NCCC4(OC)CC4)c(F)cc3C)n2)ccn1 ?
Ans: ≤ 0.1 µM

Q: Query CC(=O)Nc1cc(-c2cc(-c3cc(NC(=O)NCCC4(C)CC4)c(F)cc3C)cc(OCCO)n2)ccn1 next
Ans: ≤ 0.1 µM

Q: One more compound: Cc1ccc(NC(=O)N[C@@H]2CCc3ccccc32)cc1-c1cc(OCCO)nc(N2CCOCC2)c1
Ans: 0.1 to 0.5 µM

Q: Then what about the compound Cc1cc(F)c(NC(=O)N2CCC(C)(C#N)C2)cc1-c1cc(OCCO)nc(-c2ccnc3[nH]ncc23)c1 (stereo not drawn) ?
Ans: 0.5 to 1 µM

Q: Request: CNC(=O)c1cc(-c2cncc(-c3cc(NC(=O)N4CC[C@H](C(F)(F)F)C4)c(F)cc3C)c2)ccn1
Ans: 0.5 to 1 µM
